Here, each record is paired with measured inhibition at 0.2 µM data.
system name: CDK4 (Homo sapiens, UniProt P11802+Q16531)
Sequence (P11802 2-303 limits assumed): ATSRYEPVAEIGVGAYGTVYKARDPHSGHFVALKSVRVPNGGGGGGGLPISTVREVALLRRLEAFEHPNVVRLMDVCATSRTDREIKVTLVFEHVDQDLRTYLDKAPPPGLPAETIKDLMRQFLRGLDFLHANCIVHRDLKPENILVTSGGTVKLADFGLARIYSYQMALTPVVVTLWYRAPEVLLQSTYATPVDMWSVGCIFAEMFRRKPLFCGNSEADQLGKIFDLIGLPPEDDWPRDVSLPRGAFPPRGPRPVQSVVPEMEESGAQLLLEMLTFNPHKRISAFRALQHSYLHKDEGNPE
Sequence (P24385 whole entry partner): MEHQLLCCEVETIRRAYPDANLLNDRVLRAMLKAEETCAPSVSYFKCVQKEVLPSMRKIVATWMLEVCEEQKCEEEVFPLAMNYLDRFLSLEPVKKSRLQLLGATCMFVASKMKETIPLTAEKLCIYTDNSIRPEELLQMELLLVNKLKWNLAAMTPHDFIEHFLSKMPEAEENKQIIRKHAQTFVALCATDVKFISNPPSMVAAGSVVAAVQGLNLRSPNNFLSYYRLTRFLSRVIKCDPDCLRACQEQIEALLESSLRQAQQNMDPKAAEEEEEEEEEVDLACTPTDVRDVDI
Sequence (Q16531 2-1140 limits assumed): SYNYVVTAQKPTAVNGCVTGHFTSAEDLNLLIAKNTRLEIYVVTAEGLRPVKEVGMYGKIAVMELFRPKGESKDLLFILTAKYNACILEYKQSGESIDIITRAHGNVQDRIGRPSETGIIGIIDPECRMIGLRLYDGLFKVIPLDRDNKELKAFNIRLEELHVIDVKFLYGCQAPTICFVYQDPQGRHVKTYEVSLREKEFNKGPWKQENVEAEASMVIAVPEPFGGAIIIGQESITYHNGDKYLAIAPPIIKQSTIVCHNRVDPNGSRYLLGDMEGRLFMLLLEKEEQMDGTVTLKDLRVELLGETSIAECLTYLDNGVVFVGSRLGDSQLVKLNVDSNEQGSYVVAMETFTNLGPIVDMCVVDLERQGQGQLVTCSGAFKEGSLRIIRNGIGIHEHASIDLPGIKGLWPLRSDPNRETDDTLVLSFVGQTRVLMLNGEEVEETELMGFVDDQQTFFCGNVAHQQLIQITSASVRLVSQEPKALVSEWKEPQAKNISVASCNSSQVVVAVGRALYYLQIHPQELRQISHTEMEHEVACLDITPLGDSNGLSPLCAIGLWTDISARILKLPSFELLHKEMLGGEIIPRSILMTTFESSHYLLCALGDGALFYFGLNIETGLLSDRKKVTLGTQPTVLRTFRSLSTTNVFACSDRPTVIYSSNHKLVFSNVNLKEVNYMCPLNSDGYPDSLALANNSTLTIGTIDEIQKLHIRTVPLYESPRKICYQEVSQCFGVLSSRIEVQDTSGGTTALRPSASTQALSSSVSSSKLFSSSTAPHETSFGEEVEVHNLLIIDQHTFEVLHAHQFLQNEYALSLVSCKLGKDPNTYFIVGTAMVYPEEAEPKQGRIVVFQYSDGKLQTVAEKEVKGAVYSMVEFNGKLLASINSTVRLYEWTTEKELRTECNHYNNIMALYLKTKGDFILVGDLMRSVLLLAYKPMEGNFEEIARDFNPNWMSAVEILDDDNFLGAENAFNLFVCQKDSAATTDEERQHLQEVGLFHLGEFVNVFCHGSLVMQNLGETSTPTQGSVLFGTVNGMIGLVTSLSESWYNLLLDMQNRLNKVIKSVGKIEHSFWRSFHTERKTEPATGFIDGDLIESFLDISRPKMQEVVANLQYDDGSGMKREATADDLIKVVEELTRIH
protocol notes: CDK4 percentage degradation in Calu-1 cells (Table 6)
Format: cell-based
Parameters: Cells that express cyclin D1-3 and CDK4/6 proteins were treated with heterobifunctional compounds; endogenous in cells; host or cells: Calu-1
experimental parameters: 200 nM, 16 hours

# example entries with known answers
{"molecule": "[2H]C([2H])([2H])Nc1ccc(C(=O)Nc2cn(C)c(C3CC3)n2)c(NC2CCN(C(=O)CN3CCN(c4ccc(Nc5ncc6c(C)c(C(C)=O)c(=O)n(C7CCCC7)c6n5)nc4)CC3)CC2)n1", "reported measurement": "50 to 80%"}
{"molecule": "CNc1ccc(C(=O)Nc2ccc(N(C)C)nn2)c(NC2CC(C(=O)NCCN3CCN(c4ccc(Nc5ncc6c(C)c(C(C)=O)c(=O)n(C7CCCC7)c6n5)nc4)CC3)C2)n1 (centres unmarked)", "reported measurement": "> 80%"}
{"molecule": "CNc1ccc(C(=O)Nc2ccc(N(C)C)c(C3CC3)n2)c(NC2CC3(CC(NC(=O)CN4CCN(c5ccc(Nc6ncc7c(C)c(C(C)=O)c(=O)n(C8CCCC8)c7n6)nc5)CC4)C3)C2)n1 (centres unmarked)", "reported measurement": "50 to 80%"}

Exercise: Indicate the recorded inhibition at 0.2 µM value for this molecule: CC(=O)c1c(C)c2cnc(Nc3ccc(N4CCN(CC(=O)NCCCCCCCNc5nc(C)ccc5C(=O)Nc5ccc(N(C)C)nn5)CC4)cn3)nc2n(C2CCCC2)c1=O
Key: > 80%

Exercise: Indicate the recorded inhibition at 0.2 µM value for this molecule: CNc1ccc(C(=O)Nc2ccc(OC)c(C3CC3)n2)c(NC2CC3(CC(NC(=O)CN4CCN(c5ccc(Nc6ncc7c(C)c(C(C)=O)c(=O)n(C8CCCC8)c7n6)nc5)CC4)C3)C2)n1 (centres unmarked)
Key: 30 to 50%

###

System: T47D cells
protocol notes: Anti-proliferation (viability) of ER+ breast cancer T47D cells, 6 days (Table 7, FIG. 2B)
Format: cell-based
experimental parameters: Homo sapiens, 144 h; T47D cells, 6 days, 10-point serial dilution; read-out: GI IC50 in T47D
endpoint label: IC50

# example entries with known answers
{"compound": "CNc1ccc(C(=O)Nc2ccc(N(C)C)nn2)c(NC[C@H]2CC[C@H](NC(=O)CN3CCN(c4ccc(Nc5ncc6c(C)c(C(C)=O)c(=O)n(C7CCCC7)c6n5)nc4)CC3)CC2)n1 [CPD-73]", "IC50": "50 to 100 nM"}
{"compound": "CNc1ccc(C(=O)Nc2ccc(N(C)C)nn2)c(NC2CCC(NC(=O)CN3CCN(c4ccc(Nc5ncc6c(C)c(C(C)=O)c(=O)n(C7CCCC7)c6n5)nc4)CC3)C2)n1 (centres unmarked) [CPD-219]", "IC50": "50 to 100 nM"}
{"compound": "CNc1ccc(C(=O)Nc2ccc(N(C)C)nn2)c(NC2CC3(C2)CN(C(=O)C2(CN4CCN(c5ccc(Nc6ncc7c(C)c(C(C)=O)c(=O)n(C8CCCC8)c7n6)nc5)CC4)CC2)C3)n1 [CPD-115]", "IC50": "≤ 50 nM"}
{"compound": "CNc1ccc(C(=O)Nc2ccc(N(C)C)nn2)c(NC2CC(CNC(=O)CCN3CCN(c4ccc(Nc5ncc6c(C)c(C(C)=O)c(=O)n(C7CCCC7)c6n5)nc4)CC3)C2)n1 (centres unmarked) [CPD-80]", "IC50": "≤ 50 nM"}

Now let's try a different one.
Exercise: Indicate the recorded IC50 value for this compound: CNc1ccc(C(=O)Nc2ccc(OC)nn2)c(NCCCCCCCNC(=O)CN2CCN(c3ccc(Nc4ncc5c(C)c(C(C)=O)c(=O)n(C6CCCC6)c5n4)nc3)CC2)n1 [CPD-11]
Key: 50 to 100 nM
